# System: SNB-19
# EXPERIMENT: Growth inhibition of human SNB-19 cells assessed as cell growth at 1 uM incubated for 48 hrs by sulforhodamine B assay relative to control
# Format: functional
# CONDITION DETAILS: read-out: Activity
Please assign NOT MET whenever growth at 1 µM is at or above 80%, and MET whenever it is below.

SMILES STRING | CATEGORY
CCc1cccc(C)c1NC(=O)c1sc2nc3c(cc2c1N)C(=O)CCC3 | MET
Cc1cccc(NC(=O)c2sc3nc4c(cc3c2N)C(=O)CCC4)c1 | MET
CCc1ccccc1NC(=O)c1sc2nc3c(cc2c1N)C(=O)CCC3 | MET
Cc1ccc(NC(=O)c2sc3nc4c(cc3c2N)C(=O)CCC4)cc1C | MET
Nc1c(C(=O)Nc2ccccc2)sc2nc3c(cc12)CN(Cc1ccccc1)CC3 | NOT MET
Cc1cc(C)c(NC(=O)c2sc3nc4c(cc3c2N)CN(Cc2ccccc2)CC4)c(C)c1 | NOT MET

We next turn to a different molecule, shown below.
Enquiry: Is 80% strictly greater than the molecule's reported growth at 1 µM? molecule: CN1CCc2nc3sc(C(N)=O)c(N)c3c(-c3cccs3)c2C1
Return: NOT MET

---

# System: 786-0
# EXPERIMENT: Growth inhibition of human 786-0 cells assessed as cell growth at 1 uM incubated for 48 hrs by sulforhodamine B assay relative to control
# Format: functional
# CONDITION DETAILS: read-out: Activity
PARAMETER MEASURED: growth at 1 µM

SMILES STRING | growth at 1 µM
Cc1cc(C)c(NC(=O)c2sc3nc4c(cc3c2N)CN(Cc2ccccc2)CC4)c(C)c1 | 82%
CCc1ccccc1NC(=O)c1sc2nc3c(cc2c1N)C(=O)CCC3 | 38%
Cc1cccc(NC(=O)c2sc3nc4c(cc3c2N)C(=O)CCC4)c1 | 30%
CN1CCc2nc3sc(C(N)=O)c(N)c3c(-c3cccs3)c2C1 | 107%

Now, please, on to the next compound.
Enquiry: Request: growth at 1 µM, test system 786-0, entry Cc1ccc(NC(=O)c2sc3nc4c(cc3c2N)C(=O)CCC4)cc1C
Return: 40%

---

The entries below are paired with their reported growth at 10 µM.
# System: MDA-MB-435
# EXPERIMENT: Growth inhibition of human MDA-MB-435 cells assessed as cell growth at 10 uM incubated for 48 hrs by sulforhodamine B assay relative to control
# Assay type: functional
# CONDITION DETAILS: read-out: Activity
Answer in %, number only, no unit symbol.

Previously resolved entries follow.
SMILES STRING | growth at 10 µM / %
COc1ccc(S(=O)(=O)n2ccc(-c3ccc4c(c3)CCC(C)(C)O4)n2)cc1 | 74.3
CN1CCc2nc3sc(C(N)=O)c(N)c3c(-c3cccs3)c2C1 | 10
COc1cccc(NC(=O)c2sc3nc4c(cc3c2N)CN(Cc2ccccc2)CC4)c1 | 3
CC1(C)CCc2cc(-c3ccn(S(=O)(=O)c4ccc(Cl)cc4Cl)n3)ccc2O1 | 95.7

Now, please, on to the next compound.
Enquiry: Given the compound COc1ccc(S(=O)(=O)n2ccc(-c3ccc(OC(C)C)cc3)n2)cc1 , what is its reported growth at 10 µM?
Return: 94.6

---

# System: ACHN
# EXPERIMENT: Growth inhibition of human ACHN cells assessed as cell growth at 0.1 uM incubated for 48 hrs by sulforhodamine B assay relative to control
# Type: functional
# CONDITION DETAILS: read-out: Activity
The entries below are paired with their reported growth at 0.1 µM.
Answer in %, number only, no unit symbol.

Previously resolved entries follow.
SMILES STRING | growth at 0.1 µM [%]
Cc1ccc(NC(=O)c2sc3nc4c(cc3c2N)C(=O)CCC4)cc1C | 95
CCc1ccccc1NC(=O)c1sc2nc3c(cc2c1N)C(=O)CCC3 | 92
Cc1cc(C)c(NC(=O)c2sc3nc4c(cc3c2N)CN(Cc2ccccc2)CC4)c(C)c1 | 100
Nc1c(C(=O)Nc2ccccc2)sc2nc3c(cc12)CN(Cc1ccccc1)CC3 | 91
Cc1cccc(NC(=O)c2sc3nc4c(cc3c2N)C(=O)CCC4)c1 | 91
CCc1cccc(C)c1NC(=O)c1sc2nc3c(cc2c1N)C(=O)CCC3 | 97

Now, please, on to the next molecule.
Enquiry: Given the molecule COc1cccc(NC(=O)c2sc3nc4c(cc3c2N)CN(Cc2ccccc2)CC4)c1 , what is its reported growth at 0.1 µM?
Return: 101

---

# Tested on: M14
# EXPERIMENT: Growth inhibition of human M14 cells assessed as cell growth at 10 uM incubated for 48 hrs by sulforhodamine B assay relative to control
# Assay type: functional
# CONDITION DETAILS: read-out: Activity
The entries below are paired with their reported growth at 10 µM.
Answer in %, number only, no unit symbol.

Previously resolved entries follow.
SMILES STRING | QUANTITY UNIT | growth at 10 µM
CC(=O)c1ccc2c(N)c(C(=O)Nc3ccccc3)sc2n1 | % | 109
Nc1c(C(=O)N(c2ccccc2)c2ccccc2)sc2nc3c(cc12)C(=O)CCC3 | % | 94.2
COc1ccc(S(=O)(=O)n2ccc(-c3ccc4c(c3)CCC(C)(C)O4)n2)cc1OC | % | 81.9

Enquiry: Request: growth at 10 µM, test system M14, entry CCOc1ccc(-c2cc(N)n(S(=O)(=O)c3ccc(OC)cc3)n2)cc1
Return: 120

Enquiry: Request: growth at 10 µM, test system M14, entry CN1CCc2nc3sc(C(N)=O)c(N)c3c(-c3cccs3)c2C1
Return: 11

Enquiry: Request: growth at 10 µM, test system M14, entry COc1ccc(-c2ccn(S(=O)(=O)c3ccc(C)cc3)n2)cc1
Return: 90

---

# Test system: MDA-MB-231
# EXPERIMENT: Growth inhibition of human MDA-MB-231 cells incubated for 48 hrs by sulforhodamine B assay
# Type: functional
The entries below are paired with their reported GI50.
Answer in µM, number only, no unit symbol.

Previously resolved entries follow.
SMILES STRING | ASSAY TARGET | QUANTITY UNIT | GI50
Cc1ccc(NC(=O)c2sc3nc4c(cc3c2N)C(=O)CCC4)cc1C | MDA-MB-231 | µM | 1.51
CN1CCc2nc3sc(C(N)=O)c(N)c3c(-c3cccs3)c2C1 | MDA-MB-231 | µM | 4.77
Cc1cc(C)c(NC(=O)c2sc3nc4c(cc3c2N)CN(Cc2ccccc2)CC4)c(C)c1 | MDA-MB-231 | µM | 5.75

Enquiry: Given the compound Nc1c(C(=O)Nc2ccccc2)sc2nc3c(cc12)CN(Cc1ccccc1)CC3 , what is its reported GI50?
Return: 5.81

Enquiry: Given the compound Cc1cccc(NC(=O)c2sc3nc4c(cc3c2N)C(=O)CCC4)c1 , what is its reported GI50?
Return: 0.559

Enquiry: Given the compound CCc1ccccc1NC(=O)c1sc2nc3c(cc2c1N)C(=O)CCC3 , what is its reported GI50?
Return: 1.25

Enquiry: Given the compound CCc1cccc(C)c1NC(=O)c1sc2nc3c(cc2c1N)C(=O)CCC3 , what is its reported GI50?
Return: 1.04

Enquiry: Given the compound COc1cccc(NC(=O)c2sc3nc4c(cc3c2N)CN(Cc2ccccc2)CC4)c1 , what is its reported GI50?
Return: 11.4

---

# Test system: MDA-MB-468
# EXPERIMENT: Growth inhibition of human MDA-MB-468 cells incubated for 48 hrs by sulforhodamine B assay
# Type: functional
PARAMETER MEASURED: TGI (µM)
Answer in µM, number only, no unit symbol.

Enquiry: Given the compound CN1CCc2nc3sc(C(N)=O)c(N)c3c(-c3cccs3)c2C1 , what is its reported TGI?
Return: 4.86

Enquiry: Given the compound Cc1cc(C)c(NC(=O)c2sc3nc4c(cc3c2N)CN(Cc2ccccc2)CC4)c(C)c1 , what is its reported TGI?
Return: 88.7

Enquiry: Given the compound CCc1cccc(C)c1NC(=O)c1sc2nc3c(cc2c1N)C(=O)CCC3 , what is its reported TGI?
Return: 60.6

Enquiry: Given the compound CCc1ccccc1NC(=O)c1sc2nc3c(cc2c1N)C(=O)CCC3 , what is its reported TGI?
Return: 44.7

Enquiry: Given the compound COc1cccc(NC(=O)c2sc3nc4c(cc3c2N)CN(Cc2ccccc2)CC4)c1 , what is its reported TGI?
Return: 61.4

---

The entries below are paired with their reported GI50.
# Tested on: T47D
# EXPERIMENT: Growth inhibition of human T47D cells incubated for 48 hrs by sulforhodamine B assay
# Type: functional
Answer in nM, number only, no unit symbol.

Previously resolved entries follow.
SMILES STRING | GI50 / nM
Cc1cc(C)c(NC(=O)c2sc3nc4c(cc3c2N)CN(Cc2ccccc2)CC4)c(C)c1 | 2620
Nc1c(C(=O)Nc2ccccc2)sc2nc3c(cc12)CN(Cc1ccccc1)CC3 | 16200
CCc1cccc(C)c1NC(=O)c1sc2nc3c(cc2c1N)C(=O)CCC3 | 517
COc1cccc(NC(=O)c2sc3nc4c(cc3c2N)CN(Cc2ccccc2)CC4)c1 | 4620
CCc1ccccc1NC(=O)c1sc2nc3c(cc2c1N)C(=O)CCC3 | 431
CN1CCc2nc3sc(C(N)=O)c(N)c3c(-c3cccs3)c2C1 | 2810

Now, please, on to the next compound.
Enquiry: Given the compound Cc1ccc(NC(=O)c2sc3nc4c(cc3c2N)C(=O)CCC4)cc1C , what is its reported GI50?
Return: 444
